Where do these numbers come from? They come from ChEMBL document CHEMBL2029322.

assay: Selectivity ratio of IC50 for cathepsin D to IC50 for BACE1
Reported metric: Ratio IC50

>  <Smiles representation>
CC(=O)N[C@@H](Cc1ccc(F)cc1)[C@H](O)CN[C@H]1C[C@]2(CC[C@H]2C)Oc2ncc(CC(C)(C)C)cc21

>  <Reported value>
1.6

$$$$
>  <Smiles representation>
CC(=O)N[C@@H](Cc1ccc(F)cc1)[C@H](O)CN[C@H]1CC2(CC(F)(F)C2)Oc2ncc(CC(C)(C)C)cc21

>  <Reported value>
1.4

$$$$

(A) CC(=O)N[C@@H](Cc1ccc(F)c(F)c1)[C@H](O)CN[C@H]1C[C@]2(C[C@@H](C)C2)Oc2ncc(CC(C)(C)C)cc21
(B) CC(=O)N[C@@H](Cc1ccc(F)cc1)[C@H](O)CN[C@H]1C[C@]2(CC[C@@H]2C)Oc2ncc(CC(C)(C)C)cc21
Lookup: Would you kindly point out which of A and B has the smaller Ratio IC50 figure? Record your answer as the label of the chosen record.
Found: B
(B: 0.7, A: 6.2)

(1) CC(=O)N[C@@H](Cc1ccc(F)cc1)[C@H](O)CN[C@H]1C[C@]2(C[C@H](C)C2)Oc2ncc(CC(C)(C)C)cc21
(2) CC(=O)N[C@@H](Cc1ccc(F)cc1)[C@H](O)CN[C@H]1C[C@]2(C[C@@H](C)C2)Oc2ncc(CC(C)(C)C)cc21
(3) CC(=O)N[C@@H](Cc1ccc(F)cc1)[C@H](O)CN[C@H]1C[C@]2(C[C@H](O)C2)Oc2ncc(CC(C)(C)C)cc21
Lookup: Returns the items ordered by Ratio IC50, from maximum to minimum. Labels, ranked as asked.
Found: 3, 1, 2
(3: 184, 1: 9.5, 2: 0.9)

(1) CC(=O)N[C@@H](Cc1ccc(F)cc1)[C@H](O)CN[C@H]1C[C@@]2(CC[C@H]2C)Oc2ncc(CC(C)(C)C)cc21
(2) COCC(=O)N[C@@H](Cc1ccc(F)cc1)[C@H](O)CN[C@H]1C[C@]2(C[C@H](O)C2)Oc2ncc(CC(C)(C)C)cc21
Lookup: Would you kindly point out which of 1 and 2 has the smaller Ratio IC50 figure? Record your answer as the label of the chosen record.
Found: 1
(1: 0.7, 2: 285)

====

experiment: Metabolic stability in rat liver microsomes at 1 uM; format: ADME, Microsome; conditions: read-out: Stability
Reported metric: microsomal CLint at 1 µM (µL/min/mg)

Below, each entry is followed by its recorded microsomal CLint at 1 µM result.
>  <Smiles representation>
CC(=O)N[C@@H](Cc1cccc(F)c1)[C@H](O)CN[C@H]1CC2(CCC2)Oc2ncc(CC(C)(C)C)cc21

>  <Reported metric>
microsomal CLint at 1 µM

>  <Unit symbol>
µL/min/mg

>  <Reported value>
226

$$$$
>  <Smiles representation>
COCC(=O)N[C@@H](Cc1ccc(F)cc1)[C@H](O)CN[C@H]1C[C@]2(C[C@H](O)C2)Oc2ncc(CC(C)(C)C)cc21

>  <Reported metric>
microsomal CLint at 1 µM

>  <Unit symbol>
µL/min/mg

>  <Reported value>
682

$$$$
>  <Smiles representation>
CC(=O)N[C@@H](Cc1ccc(F)c(F)c1)[C@H](O)CN[C@H]1C[C@]2(C[C@@H](C)C2)Oc2ncc(CC(C)(C)C)cc21

>  <Reported metric>
microsomal CLint at 1 µM

>  <Unit symbol>
µL/min/mg

>  <Reported value>
921

$$$$

(1) CC(=O)N[C@@H](Cc1ccc(F)cc1)[C@H](O)CN[C@H]1C[C@]2(CC[C@H]2C)Oc2ncc(CC(C)(C)C)cc21
(2) CC(=O)N[C@@H](Cc1ccc(F)cc1)[C@H](O)CN[C@H]1C[C@@]2(CC[C@@H]2C)Oc2ncc(CC(C)(C)C)cc21
Lookup: Return label of the item with the larger microsomal CLint at 1 µM. Candidates: 1 , 2 . Record your answer as the label of the chosen record.
Found: 2

(1) CC(=O)N[C@@H](Cc1ccc(F)cc1)[C@H](O)CN[C@H]1C[C@]2(CC[C@@H]2C)Oc2ncc(CC(C)(C)C)cc21
(2) CC(=O)N[C@@H](Cc1ccc(F)cc1)[C@H](O)CN[C@H]1C[C@]2(C[C@H](O)C2)Oc2ncc(CC(C)(C)C)cc21
Lookup: Return label of the item with the larger microsomal CLint at 1 µM. Candidates: 1 , 2 . Record your answer as the label of the chosen record.
Found: 2

(I) C=CC[C@H](NC(C)=O)[C@H](O)CN[C@H]1CC2(CCC2)Oc2ncc(CC(C)(C)C)cc21
(II) CC(=O)N[C@@H](Cc1cccc(F)c1)[C@H](O)CN[C@H]1C[C@]2(C[C@@H](F)C2)Oc2ncc(CC(C)(C)C)cc21
Lookup: Return label of the item with the larger microsomal CLint at 1 µM. Candidates: I , II . Record your answer as the label of the chosen record.
Found: II
